Sourced from patent US9249145B2

- ASSAY TARGET: Jak2 (a.a. 828-1132) (Homo sapiens, UniProt O60674)
- Construct: Jak2 (a.a. 828-1132); His tag (N); made in house; host or cells: insect cells (baculovirus)
- Sequence (O60674 828-1132): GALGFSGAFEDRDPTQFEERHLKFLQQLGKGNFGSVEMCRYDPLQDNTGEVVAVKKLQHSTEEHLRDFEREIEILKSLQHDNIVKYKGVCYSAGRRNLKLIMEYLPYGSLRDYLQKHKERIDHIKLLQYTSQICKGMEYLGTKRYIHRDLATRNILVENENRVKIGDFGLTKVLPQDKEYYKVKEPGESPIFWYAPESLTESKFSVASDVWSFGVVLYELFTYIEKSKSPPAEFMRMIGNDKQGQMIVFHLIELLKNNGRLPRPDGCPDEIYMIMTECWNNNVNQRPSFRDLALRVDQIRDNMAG
- PROTOCOL DESCRIPTION: In vitro JAK kinase assay (HTRF, phosphorylation of biotinylated peptide), JAK2
- Assay type: biochemical
- COND: 1 mM ATP; Examples 12-91; read-out: JAK2 IC50 (nM) @ 1 mM ATP
Where a name gives a salt, the structure may show the parent alone.
Listed next: entries and their corresponding IC50.
PARAMETER MEASURED: IC50

COMPOUND	ASSAY TARGET	PARAMETER MEASURED	RESULT
N#CCC(CN1CCN(C(=O)c2ccc(F)cc2C(F)(F)F)CC1)n1cc(-c2ncnc3[nH]ccc23)cn1 (stereo not shown) [Example 59]	Jak2 (a.a. 828-1132) (Homo sapiens, UniProt O60674)	IC50	> 100 nM
COc1ccc(C(=O)N2CCN(CC(CC#N)n3ccc(-c4ncnc5[nH]ccc45)c3)CC2)cc1F (stereo not shown) [Example 82]	Jak2 (a.a. 828-1132) (Homo sapiens, UniProt O60674)	IC50	10 to 50 nM
N#CCC(CN1CCN(C(=O)Nc2ccc(F)cc2F)CC1)n1cc(-c2ncnc3[nH]ccc23)cn1 (stereo not shown) [Example 72]	Jak2 (a.a. 828-1132) (Homo sapiens, UniProt O60674)	IC50	50 to 100 nM
N#CCC(CN1CCN(C(=O)c2cc(F)cc(Cl)c2)CC1)n1cc(-c2ncnc3[nH]ccc23)cn1 (stereo not shown) [Example 46, trifluoroacetate salt]	Jak2 (a.a. 828-1132) (Homo sapiens, UniProt O60674)	IC50	10 to 50 nM
N#CCC(CN1CCN(C(=O)c2ncc(F)cc2F)CC1)n1cc(-c2ncnc3[nH]ccc23)cn1 (stereo not shown) [Example 40]	Jak2 (a.a. 828-1132) (Homo sapiens, UniProt O60674)	IC50	10 to 50 nM
N#CCC(CN1CCN(C(=O)c2ccc(F)cc2F)CC1)n1cc(-c2ncnc3[nH]ccc23)cn1 (stereo not shown) [Example 30]	Jak2 (a.a. 828-1132) (Homo sapiens, UniProt O60674)	IC50	< 10 nM
COc1ccc(C(=O)N2CCN(CC(CC#N)n3cc(-c4ncnc5[nH]ccc45)cn3)CC2)cc1F (stereo not shown) [Example 18, phosphate Salt]	Jak2 (a.a. 828-1132) (Homo sapiens, UniProt O60674)	IC50	50 to 100 nM

====

Listed next: entries and their corresponding IC50.
- ASSAY TARGET: Jak2 (a.a. 828-1132) (Homo sapiens, UniProt O60674)
- Construct: Jak2 (a.a. 828-1132); His tag (N); made in house; host or cells: insect cells (baculovirus)
- PROTOCOL DESCRIPTION: In vitro JAK kinase assay (HTRF, phosphorylation of biotinylated peptide), JAK2
- Format: biochemical
- COND: 1 mM ATP; Examples 12-91; read-out: JAK2 IC50 (nM) @ 1 mM ATP
Where a name gives a salt, the structure may show the parent alone.

COMPOUND	IC50
COc1cscc1C(=O)N1CCN(CC(CC#N)n2cc(-c3ncnc4[nH]ccc34)cn2)CC1 (stereo not shown)	50 to 100 nM
N#CCC(CN1CCN(C(=O)c2cc(C(F)(F)F)ccc2F)CC1)n1cc(-c2ncnc3[nH]ccc23)cn1 (stereo not shown)	< 10 nM
N#CCC(CN1CCN(C(=O)c2ccc(C#N)cc2)CC1)n1ccc(-c2ncnc3[nH]ccc23)c1 (stereo not shown)	> 100 nM
N#CCC(CN1CCN(C(=O)c2c(F)cc(Cl)cc2F)CC1)n1cc(-c2ncnc3[nH]ccc23)cn1 (stereo not shown)	< 10 nM
N#CCC(CN1CCN(C(=O)c2ccc(C#N)cn2)CC1)n1cc(-c2ncnc3[nH]ccc23)cn1 (stereo not shown)	> 100 nM
N#CCC(CN1CCN(C(=O)c2ncc(C(F)(F)F)cc2F)CC1)n1cc(-c2ncnc3[nH]ccc23)cn1 (stereo not shown)	> 100 nM
N#CCC(CN1CCN(C(=O)c2ccc(F)c(F)c2F)CC1)n1cc(-c2ncnc3[nH]ccc23)cn1 (stereo not shown) [Example 48, phosphate salt]	10 to 50 nM
N#CCC(CN1CCN(C(=O)c2cc(F)cc(F)c2)CC1)n1ccc(-c2ncnc3[nH]ccc23)c1 (stereo not shown)	50 to 100 nM
Cc1ccc(S(=O)(=O)N2CCN(CC(CC#N)n3cc(-c4ncnc5[nH]ccc45)cn3)CC2)nc1 (stereo not shown)	< 10 nM
N#CCC(CN1CCN(C(=O)c2ccc(F)cc2)CC1)n1cc(-c2ncnc3[nH]ccc23)cn1 (stereo not shown)	10 to 50 nM
C[C@H]1CN(C(=O)c2ccc(C#N)cc2F)CCN1CC(CC#N)n1cc(-c2ncnc3[nH]ccc23)cn1 (single isomer, unassigned) [25, S-1]	> 100 nM
N#CCC(CN1CCN(C(=O)c2ccc(F)cc2Cl)CC1)n1cc(-c2ncnc3[nH]ccc23)cn1 (stereo not shown)	10 to 50 nM
C[C@@H]1CN(C(=O)c2ccc(C#N)cc2F)CCN1CC(CC#N)n1cc(-c2ncnc3[nH]ccc23)cn1 (single isomer, unassigned) [24, R-1]	> 100 nM
